- test details: chemical genetic growth profiling, strain panel (AID 1159580);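 further: tested at 20 µM; growth read once vehicle control cultures reached saturation at 30 °C; lower values mean less growth of the strain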
- test conditions: S. cerevisiae deletion strains, growth OD, locus YNL298W, strain CLA4, active compounds read low
Out of some 5,500 compounds screened, about 2,000 (36%) were called active. Another 18% or so got no clear call; they are omitted. Some of the results follow.
Please use Condition met for normalized growth under 1 and Condition not met for everything else, ties included.

compound	class assignment
COc1ccc(-c2coc3cc(O)cc(O)c3c2=O)cc1	Condition met
COc1cc([C@@H]2c3cc4c(cc3C(O[C@@H]3O[C@@H]5CO[C@@H](c6cccs6)OC5[C@H](O)[C@H]3O)C3COC(=O)[C@@H]32)OCO4)cc(OC)c1O (some centres undefined)	Condition not met
